Sourced from PubChem BioAssay (NCI)

- assay.info: NCI Yeast Anticancer Drug Screen. Data for the bub3 strain (AID 167)
- settings: S. cerevisiae bub3 mutant strain, at 11.0 µM, active compounds read high
About 79,000 compounds went through this panel and 15% of them were active in at least one assay; those are over-represented in the sample as a whole.
Where growth inhibition equals or exceeds 10%, the correct label is condition met; where it does not, the label is condition not met.

q: Test whether the compound Nc1ccc2c(c1)C(=O)c1cccc(N)c1C2=O records growth inhibition of 10% or higher.
a: condition met

q: Test whether the compound c1ccc2c(c1)NC(NC1Nc3ccccc3N1)N2 records growth inhibition of 10% or higher.
a: condition not met

q: Test whether the compound [O-][n+]1c2ccc(O)cc2nc2ccc(Br)cc21 records growth inhibition of 10% or higher.
a: condition met

q: Test whether the compound O=C(O)C1CCCCC1c1c2ccc(=O)c(O)c-2oc2c(O)c(O)ccc12 (configuration not stated) records growth inhibition of 10% or higher.
a: condition met

q: Test whether the compound C=CCC1=C(C)C(OC(=O)/C=C/c2ccccc2)CC1=O (configuration not stated) records growth inhibition of 10% or higher.
a: condition met

q: Test whether the compound C#CCCCc1ccccc1 records growth inhibition of 10% or higher.
a: condition not met

q: Test whether the compound [N-]=[N+]=NC1=C(c2ccccn2)C(=O)c2cccc3cccc1c23 records growth inhibition of 10% or higher.
a: condition met

q: Test whether the compound COc1ccc(/C=C2\SC(=S)N(/C=C/c3nc4ccccc4[nH]c3=O)C2=O)cc1OC records growth inhibition of 10% or higher.
a: condition met

q: Test whether the compound Oc1cccc2c(Cl)ccnc12 records growth inhibition of 10% or higher.
a: condition met

q: Test whether the compound OC1CCCc2c1cc1ccc3cccc4ccc2c1c34 (configuration not stated) records growth inhibition of 10% or higher.
a: condition met

q: Test whether the compound CCOC(=O)C1=C(C(=O)c2ccccc2)C(c2ccccc2[N+](=O)[O-])C(C(=O)c2ccccc2)=C(C(=O)OCC)N1 records growth inhibition of 10% or higher.
a: condition met

---

- assay.info: NCI Yeast Anticancer Drug Screen. Data for the rad50EPP+ strain (AID 151);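 note: 0% = growth of vehicle-treated control cultures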
- settings: S. cerevisiae rad50 mutant strain, at 1.2 µM, active compounds read high
The panel holds about 79,000 compounds, 15% with a hit somewhere; the sample as a whole holds those more often.
Assignment: determine reported growth inhibition for the given compounds.
Give just the number in %; leave the unit off.

Briefly, growth inhibition measured for CCCCCCCCC/C=C/C=C/C(=O)NCC(=O)NC1C(O)C(O)C(Nc2ncnc3nc[nH]c23)OC1C(O)CO (stereo unspecified) : -19

Briefly, growth inhibition measured for CCN(CC)C(C)(C)C(=O)/C=C/c1ccccc1 : 2

Briefly, growth inhibition measured for CCCCCCCCCCC1CCC(=O)O1 (stereo unspecified) : -2

Briefly, growth inhibition measured for O=C(O)c1ccccc1NC(=S)c1ccccc1 : 13

Briefly, growth inhibition measured for c1ccc2c(c1)sc1nc3ccncc3nc12 : 23

Briefly, growth inhibition measured for OC(c1ccc(F)cc1)(c1ccc(F)cc1)C1CC1 : -10

---

- assay.info: NCI Yeast Anticancer Drug Screen. Data for the rad14 strain (AID 159);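 note: 0% = growth of vehicle-treated control cultures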
- settings: S. cerevisiae rad14 strain growth inhibition; at 11.0 µM; active compounds read high
This is part of a sample that, as a whole, favours compounds with a hit. Of some 79,000 tested, about 15% had one in any assay.
Assignment: determine reported growth inhibition for the given compounds.
Give just the number in %; leave the unit off.

Briefly, growth inhibition measured for CSC(=S)Nc1cccc(C)n1 : 9

Briefly, growth inhibition measured for Cn1ccnc1Oc1ccc(Cl)cc1 : 26

Briefly, growth inhibition measured for CC(C)/C(Cl)=N\OC(=O)Nc1ccccc1F : 9

Briefly, growth inhibition measured for O=[N+]([O-])CC(SCc1ccccc1)c1ccc2c(c1)OCO2 (configuration not stated) : 71

Briefly, growth inhibition measured for Cc1cc(S(=O)(=O)/N=C(/NN)NNc2cccc(C(F)(F)F)n2)c(S)cc1Cl : 1

Briefly, growth inhibition measured for S=C(Nc1ccc(Cl)cc1)SC1CCCCC1 : 27

Briefly, growth inhibition measured for CCC(C)COC(=O)c1ccc(N=Cc2ccc(C=Nc3ccc(C(=O)OCC(C)CC)cc3)cc2)cc1 (configuration not stated) : 4

Briefly, growth inhibition measured for S=C(N/N=C(/c1ccccc1)c1ccccn1)N1CCCCCC1 : -4

Briefly, growth inhibition measured for Cc1ccc(CSC(N)=Nc2ccccc2)cc1C : -17

Briefly, growth inhibition measured for C/C(=N\NC(=S)N1CCCCC1)c1cccc(C)n1 : 99

Briefly, growth inhibition measured for CCC(=O)OCCn1c2nc(=O)[nH]c(=O)c-2nc2cc(C)c(C)cc21 : 23

Briefly, growth inhibition measured for Cc1cc(I)ccc1N : -1
